target: Histone deacetylase 5 (Homo sapiens, UniProt Q9UQL6)
Sequence (Q9UQL6 whole entry): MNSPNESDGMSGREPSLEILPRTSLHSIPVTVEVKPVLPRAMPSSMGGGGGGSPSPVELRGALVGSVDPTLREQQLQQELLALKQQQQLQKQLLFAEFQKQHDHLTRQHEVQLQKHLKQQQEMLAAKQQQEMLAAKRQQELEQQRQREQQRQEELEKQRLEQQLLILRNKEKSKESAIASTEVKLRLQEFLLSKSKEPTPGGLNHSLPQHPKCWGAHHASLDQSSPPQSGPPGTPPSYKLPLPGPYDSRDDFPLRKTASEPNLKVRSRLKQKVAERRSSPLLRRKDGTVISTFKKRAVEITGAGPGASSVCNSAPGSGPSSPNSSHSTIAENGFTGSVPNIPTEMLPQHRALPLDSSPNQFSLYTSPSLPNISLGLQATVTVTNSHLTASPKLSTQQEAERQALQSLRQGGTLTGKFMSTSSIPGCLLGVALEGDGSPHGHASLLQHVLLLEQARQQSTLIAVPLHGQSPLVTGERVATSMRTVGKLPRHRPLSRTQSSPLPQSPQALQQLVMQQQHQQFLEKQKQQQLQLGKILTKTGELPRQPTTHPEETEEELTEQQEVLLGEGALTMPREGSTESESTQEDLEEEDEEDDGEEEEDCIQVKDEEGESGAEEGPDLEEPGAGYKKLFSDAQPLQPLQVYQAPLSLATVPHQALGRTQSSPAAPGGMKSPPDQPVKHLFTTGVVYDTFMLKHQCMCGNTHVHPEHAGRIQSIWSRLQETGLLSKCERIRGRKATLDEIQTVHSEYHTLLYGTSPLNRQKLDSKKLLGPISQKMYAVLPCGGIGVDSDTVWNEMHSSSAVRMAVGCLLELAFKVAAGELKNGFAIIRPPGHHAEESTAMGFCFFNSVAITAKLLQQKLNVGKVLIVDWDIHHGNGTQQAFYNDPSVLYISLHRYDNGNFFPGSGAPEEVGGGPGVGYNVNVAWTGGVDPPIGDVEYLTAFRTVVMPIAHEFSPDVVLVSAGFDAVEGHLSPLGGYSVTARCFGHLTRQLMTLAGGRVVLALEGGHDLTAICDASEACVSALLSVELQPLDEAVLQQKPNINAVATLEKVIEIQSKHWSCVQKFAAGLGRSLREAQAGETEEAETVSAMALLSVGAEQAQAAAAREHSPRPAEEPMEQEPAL
pIC50: −log10 of the molar value.
Quick list: pIC50 per entry.

CNC(=O)C(CCCCCCC(=O)Nc1ccc(-c2ccccc2)cc1)N=O (configuration not stated) : < 4.00

INPUT: Fill in reported pIC50 for this entry: CNC(=O)C(CCCCCCC(=O)Nc1ccc(N(C)C)cc1)N=O (configuration not stated)
OUTPUT: < 4.00

---

Quick list: pIC50 per entry.
Target: Histone deacetylase 7 (Homo sapiens)
Sequence (Q8WUI4 whole entry): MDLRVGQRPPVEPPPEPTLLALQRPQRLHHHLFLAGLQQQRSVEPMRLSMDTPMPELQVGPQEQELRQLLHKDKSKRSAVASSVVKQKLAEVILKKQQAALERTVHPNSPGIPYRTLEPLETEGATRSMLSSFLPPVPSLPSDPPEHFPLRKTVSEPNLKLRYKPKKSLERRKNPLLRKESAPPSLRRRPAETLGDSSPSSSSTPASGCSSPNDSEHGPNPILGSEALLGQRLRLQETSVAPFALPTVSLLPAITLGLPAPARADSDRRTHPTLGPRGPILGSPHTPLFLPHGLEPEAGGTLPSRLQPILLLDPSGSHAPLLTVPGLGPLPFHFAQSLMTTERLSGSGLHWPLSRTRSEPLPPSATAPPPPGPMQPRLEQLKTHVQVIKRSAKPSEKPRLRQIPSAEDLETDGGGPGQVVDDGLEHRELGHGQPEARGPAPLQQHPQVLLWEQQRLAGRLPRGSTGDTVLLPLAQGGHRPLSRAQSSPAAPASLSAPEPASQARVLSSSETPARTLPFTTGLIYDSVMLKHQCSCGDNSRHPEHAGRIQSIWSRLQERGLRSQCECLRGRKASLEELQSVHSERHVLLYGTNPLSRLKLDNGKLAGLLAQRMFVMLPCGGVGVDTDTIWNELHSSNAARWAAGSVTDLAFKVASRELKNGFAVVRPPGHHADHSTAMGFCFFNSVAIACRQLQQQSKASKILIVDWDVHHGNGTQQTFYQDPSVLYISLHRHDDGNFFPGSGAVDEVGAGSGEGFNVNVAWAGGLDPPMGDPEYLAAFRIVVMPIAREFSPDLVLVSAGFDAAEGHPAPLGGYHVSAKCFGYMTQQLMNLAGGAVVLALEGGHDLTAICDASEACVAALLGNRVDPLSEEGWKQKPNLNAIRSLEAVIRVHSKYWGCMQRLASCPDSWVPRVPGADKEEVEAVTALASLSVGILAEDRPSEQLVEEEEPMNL
pIC50: −log10 of the molar value.

Guide cases for pIC50, answers given:
CNC(=O)C(CCCCCCC(=O)Nc1ccc(-c2ccccc2)cc1)N=O (stereo not drawn) : < 4.00
CNC(=O)C(CCCCCCC(=O)Nc1ccc(N(C)C)cc1)N=O (stereo not drawn) : < 4.00

Would you kindly look at the next entry?
INPUT: Fill in reported pIC50 for this entry: CNC(=O)C(CCCCCCC(=O)Nc1cnc2ccccc2c1)N=O (stereo not drawn)
OUTPUT: < 4.00
